Please respond with reported melting point for every item in the list.

Which melting point is reported for this molecule? O=C(Nc1ccc(Oc2ccc(C3=CCN(CCCn4ccnc4)CC3)cc2)cc1)c1ccc(Cl)c(Cl)c1
169 to 171 °C

Data request, read-out melting point, for CCN(CC(=O)N1CCN(Cc2ccoc2)CC1)c1ccc(Oc2ccc(NC(=O)c3ccc(C(F)(F)F)cc3)cn2)c(OC)c1
174 to 176 °C

Using the record for CCN(CC(=O)N1CCN(Cc2ccc3c(c2)OCO3)CC1)c1ccc(Oc2ccc(NS(=O)(=O)c3ccc(Cl)c(Cl)c3)cn2)c(F)c1 , report its melting point.
163 to 166 °C

Looking for the measured melting point of O=C(Nc1ccc(Oc2ccc(N3CCN(C(=O)CN4CCOCC4)CC3)cc2)cc1)c1ccc(Cl)c(Cl)c1 , can you help?
177 to 178 °C

For CC(C)(C)OC(=O)N1CCN(C(=O)CCc2ccc(Oc3ccc(NC(=O)c4ccc(Cl)c(Cl)c4)cc3F)cc2)CC1 , what is its reported melting point?
155 to 157 °C

Look up melting point: O=C(Nc1ccc(Oc2ccc(CCC(=O)N3CCN(c4cccnc4)CC3)cc2)c(F)c1)c1ccc(Cl)c(Cl)c1
183 to 185 °C

GET /values?readout=melting point&item= O=C(Nc1ccc(Oc2ccc(C(=O)N3CCN(c4ccccn4)CC3)cc2)nc1)c1ccc(C(F)(F)F)cc1
222 to 224 °C

Name the reported melting point value associated with the molecule O=C(Nc1ccc(Oc2ccc(N3CCN(C(=O)COc4ccccc4)CC3)cc2)cc1)c1ccc(Cl)c(Cl)c1
171 to 173 °C

Fill blank: measured melting point of the molecule Cc1cc(N2CCC(CC(=O)N3CCN(Cc4ccc5c(c4)OCO5)CC3)CC2)ccc1Oc1ccc(NS(=O)(=O)c2ccc(C(F)(F)F)cc2)cn1 is ____.
156 to 158 °C

Endpoint output: melting point of CCN(CC(=O)N1CCN(Cc2ccccc2)CC1)c1ccc(Oc2ccc(NC(=O)c3ccc(Cl)c(Cl)c3)cn2)c(C)c1 . Value?
102 to 105 °C

Entry CN(CC(=O)N1CCN(Cc2ccc3c(c2)OCO3)CC1)c1ccc(Oc2ccc(NS(=O)(=O)c3ccc(Cl)c(Cl)c3)cn2)c(F)c1 has what melting point?
185.6 to 187 °C

Reported melting point for CN(C(=O)CN1CCOCC1)C1CCN(c2ccc(Oc3ccc(NC(=O)c4ccc(Cl)c(Cl)c4)cc3)cc2)CC1 : what is it?
157 to 160 °C

Please look up its melting point: CN(CC(=O)N1CCN(Cc2ccc3c(c2)OCO3)CC1)c1ccc(Oc2ccc(NC(=O)c3ccc(Cl)c(Cl)c3)cn2)c(F)c1
199 to 201 °C
